Where a name gives a salt, the structure may show the parent alone.
readout-label: melting point

Some entries whose results are on file:
molecule	readout-label	value-observed
CC(C)O/N=C(\CCN1CCN(c2ccccn2)CC1)c1ccccc1 (as salt: maleate) [Example 31]	melting point	156 to 157 °C
CCCCON=C(CCN1CCN(c2ccccn2)CC1)c1ccccc1 (as salt: maleate) [Example 30]	melting point	154 to 155 °C
N#CCON=C(CCN1CCN(c2ccccn2)CC1)c1ccccc1 (as salt: maleate) [Example 29]	melting point	127 to 128 °C
CON=C(c1ccc(Cl)cc1)C(C)CN1CCN(c2ccccn2)CC1 (stereo not drawn) (as salt: maleate) [Example 39]	melting point	152 to 153 °C
ON=C(CCN1CCN(c2ccccn2)CC1)c1ccc(F)cc1 [Example 21]	melting point	159 to 160 °C

From here, focus on the item given below.
Any idea what its melting point is? The molecule is O/N=C(\CCN1CCN(c2ccccn2)CC1)c1ccc(Cl)cc1 [Example 22]
188 to 190 °C
